This collection of values is drawn from patent US20240216357A1.

- measurementProtocol: Rat PK test (IV and PO); further: test concentration or dose not given here
- recordedConditions: male, SD, rat, plasma
Structures can show the parent of a compound that is named as a salt.
propertyLabel: Cmax (ng/mL)
Give bare numbers, in ng/mL.

{"compound": "O=C(NC1CCOCC1)c1cc(CN[C@@H]2C[C@H]2c2ccc(F)cc2)nc(-c2ccc(N3CCOCC3)cc2)n1 [Example 246, hydrochloride]", "unitLabel": "ng/mL", "Cmax": 56.2}

For each of the compounds below, state Cmax.
1. COc1ccc(-c2cnc(N3CCC(N)CC3)c(C#N)c2-c2ccc(C#N)c(F)c2)cc1O [Example 66, hydrochloride]
2. COc1ccc(-c2c(OC)cc(N3CCC(N)CC3)nc2-c2ccc(C#N)c(F)c2)cc1O
3. COc1ccc(-c2c(-c3ccc(C#N)c(F)c3)nc(N3CCC(N)CC3)n(C)c2=O)cc1F [(CC90011), reference compound]
4. Cc1noc2cc(-c3c(-c4ccc(C#N)c(F)c4)nc(N4CCC(N)CC4)n4ccnc34)c(F)cc12

Key:
1: 42.5; 2: 22.5; 3: 26; 4: 65

###

Assign IC50 to each entry below.
- assayedSystem: UniProtKB P08684
- Sequence (P08684 whole entry): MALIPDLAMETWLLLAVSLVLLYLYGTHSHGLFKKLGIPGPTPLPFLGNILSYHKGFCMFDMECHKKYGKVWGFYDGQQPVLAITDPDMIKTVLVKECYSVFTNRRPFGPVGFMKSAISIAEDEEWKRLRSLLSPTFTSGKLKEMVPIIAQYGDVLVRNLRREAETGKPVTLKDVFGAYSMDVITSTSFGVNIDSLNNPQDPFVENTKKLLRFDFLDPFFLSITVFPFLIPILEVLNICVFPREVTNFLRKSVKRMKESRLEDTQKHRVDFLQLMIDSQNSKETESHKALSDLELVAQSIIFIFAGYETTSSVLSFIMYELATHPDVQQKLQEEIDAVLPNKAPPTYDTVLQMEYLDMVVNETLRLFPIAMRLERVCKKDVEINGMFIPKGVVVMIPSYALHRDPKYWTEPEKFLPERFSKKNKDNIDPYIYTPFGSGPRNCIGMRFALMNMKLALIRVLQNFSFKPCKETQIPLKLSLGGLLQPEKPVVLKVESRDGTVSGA
- measurementProtocol: CYP 450 enzyme inhibition test (mixed human liver microsomes, LC-MS/MS)
- recordedConditions: read-out: CYP3A4-T IC50; mixed human liver microsomes, NADPH, CYP3A4-T probe substrate
Counter-ions that a name gives are not always drawn.

Record excerpt, results attached:
{"compound": "COc1ccc(-c2c(-c3ccc(C#N)c(F)c3)nc(N3CC4CC3CC4N)n3ccnc23)cc1O (stereo not shown) [Example 164, hydrochloride]", "IC50": "> 10 µM"}
{"compound": "COc1ccc(-c2c(-c3ccc(C#N)c(F)c3)nc(N3CC4CC3CC4N)n3ccnc23)cc1F (stereo not shown) [Example 169, hydrochloride]", "IC50": "> 10 µM"}
{"compound": "COc1ccc(-c2c(OC)cc(N3CCC(N)CC3)nc2-c2ccc(C#N)c(F)c2)cc1F [Example 87]", "IC50": "6.74 µM"}
{"compound": "COc1ccc(-c2c(-c3ccc(C#N)c(F)c3)nc(N3CCC(N)CC3)n(C)c2=O)cc1F [(CC90011), reference compound]", "IC50": "> 50 µM"}
{"compound": "CC1CN(C(=O)c2cc(CN[C@@H]3C[C@H]3c3ccc(F)cc3)nc(-c3ccc(C#N)cc3)n2)CC(C)N1 (stereo partly shown) [Example 239]", "IC50": "> 10 µM"}
{"compound": "COc1ccc(-c2nc(CN[C@@H]3C[C@H]3c3ccc(F)cc3)cc(C(=O)N3CCN(S(C)(=O)=O)CC3)n2)cc1O [Example 224]", "IC50": "5.54 µM"}

Exercise: Find the recorded IC50 belonging to COc1ccc(-c2c(C#N)cc(N3CCC(N)CC3)nc2-c2ccc(C#N)c(F)c2)cc1O [Example 273] and report it.
Key: > 10 µM

###

Would you kindly list IC50 for each of these molecules?
- assayedSystem: LSD1 (Homo sapiens (Human))
- measurementProtocol: LSD1 enzyme activity detection (HTRF)
- Format: biochemical
- recordedConditions: HTRF, H3K4me1 substrate; read-out: Inhibition of enzymatic activity of LSD1 IC50
Structures can show the parent of a compound that is named as a salt.
Numbers only, in nM.

Here's what some known entries look like.
{"molecule": "COc1ccc(-c2c(-c3ccc(C#N)c(F)c3)nc(N3CCC(C)(N)CC3)n3ccnc23)cc1O", "IC50, nM": 5.5}
{"molecule": "Cc1ccc(-c2c(O)cc(N3CCC(N)CC3)nc2-c2ccc(C#N)c(F)c2)cc1O", "IC50, nM": 0.4}
{"molecule": "CNC1CCN(c2cc(O)c(-c3ccc(OC)c(F)c3)c(-c3ccc(C#N)c(F)c3)n2)CC1", "IC50, nM": 2.3}
{"molecule": "CS(=O)(=O)N1CCN(C(=O)c2cc(CCN[C@@H]3C[C@H]3c3ccc(F)cc3)nc(-c3ccc(-n4cccn4)cc3)c2)CC1", "IC50, nM": 172}
{"molecule": "N#Cc1ccc(-c2nc(N3CCC(N)CC3)cc(O)c2-c2ccn3ccnc3c2)cc1F [Example 17, hydrochloride]", "IC50, nM": 19.4}
{"molecule": "COc1ccc(-c2nc(CN[C@@H]3C[C@H]3c3ccc(F)cc3)cc(C(=O)N3CCN(S(C)(=O)=O)CC3)n2)cc1F", "IC50, nM": 52.1}
{"molecule": "N#Cc1ccc(-c2nc(N3C4CCC3CC(N)C4)n3ccnc3c2-c2ccc(Cl)c(O)c2)cc1F (stereo not drawn) [Example 158, hydrochloride]", "IC50, nM": 0.2}
{"molecule": "COC(=O)C1CCN(C(=O)c2cc(CN[C@@H]3C[C@H]3c3ccc(F)cc3)nc(-c3ccc(-n4cccn4)cc3)n2)CC1", "IC50, nM": 22.5}

List reported IC50 for each of these molecules:
1. N#Cc1ccc(-c2nc(N3CCC(N)CC3)n3ccnc3c2-c2ccc(OC(F)(F)F)c(O)c2)cc1F [Example 133, hydrochloride]
2. COc1ccc(-c2c(-c3ccc(C#N)c(F)c3)nc(N3CC4CC(C3)C4N)n3ccnc23)cc1O (stereo not drawn) [Example 163, hydrochloride]
3. N#Cc1ccc(-c2nc(N3C4CCC3CC(N)C4)n3ccnc3c2-c2cc3c(cc2F)CCN3)cc1F (stereo not drawn)
4. COc1ccc(-c2c(-c3ccc(C#N)c(F)c3F)nc(N3C4CCC3CC(N)C4)n3ccnc23)cc1F (stereo not drawn) [Example 183, hydrochloride]
5. COc1ccc(-c2c(O)cc(N3CCC(N)CC3)nc2-c2ccc(C#N)c(F)c2)cc1C#N

Key:
0.54
5.6
1.9
3.6
2.6

###

For each of the compounds below, state its pIC50.
- assayedSystem: LSD1 (Homo sapiens (Human))
- measurementProtocol: LSD1 enzyme activity detection (HTRF)
- Format: biochemical
- recordedConditions: HTRF, H3K4me1 substrate; read-out: Inhibition of enzymatic activity of LSD1 IC50
Counter-ions that a name gives are not always drawn.
Numbers only, as −log10 of the molar value.

Example compounds with recorded pIC50:
{"compound": "Cc1ccc(-c2cnc(N3CCC(N)CC3)c(C#N)c2-c2ccc(C#N)c(F)c2)cc1F [Example 72]", "pIC50": 8.18}
{"compound": "CC(C)(O)Cn1ncc2cc(F)c(-c3sc(C(=O)N4C5CCC4CC(N)C5)cc3-c3ccc(C#N)c(F)c3)cc21 (stereo not drawn) [Example 217, hydrochloride]", "pIC50": 7.89}

Now turn to the next compound.
Exercise: What value of pIC50 has been reported for the following compound? COc1ccc(-c2c(-c3ccc(C#N)c(F)c3)nc(N3CCC(N)CC3)c3nc[nH]c23)cc1F [Example 270, hydrochloride]
Key: 8.00

###

- assayedSystem: UniProt:O60341
- measurementProtocol: LSD1 enzyme activity detection (HTRF)
- Type: biochemical
- recordedConditions: HTRF, H3K4me1 substrate; read-out: Inhibition of enzymatic activity of LSD1 IC50
Counter-ions that a name gives are not always drawn.
propertyLabel: IC50 (nM)
Numbers only, in nM.

Before answering, review these 3 worked examples.
{"compound": "COc1ccc(-c2c(O)cc(N3C4CCC3CC(N)C4)nc2-c2ccc(C#N)c(F)c2)cc1O (stereo not shown)", "IC50, nM": 15.1}
{"compound": "CC(C)(O)Cc1ccc(-c2c(-c3ccc(C#N)c(F)c3)nc(N3CCC(N)CC3)n3ccnc23)cc1F", "IC50, nM": 6.1}
{"compound": "COc1ccc(-c2c(O)cc(N3C4CCC3CC(N)C4)nc2-c2ccc(C#N)c(F)c2)cc1F (stereo not shown)", "IC50, nM": 13.8}

We next turn to a different compound, shown below.
Exercise: What value of IC50 on UniProt:O60341 does N#CCn1ncc2cc(F)c(-c3sc(C(=O)N4C5CCC4CC(N)C5)nc3-c3ccc(C#N)c(F)c3)cc21 (stereo not shown) [Example 221, hydrochloride] have?
Key: 10

###

- assayedSystem: voltage-gated potassium ion channel hERG (Homo sapiens (Human))
- Sequence (Q12809 whole entry): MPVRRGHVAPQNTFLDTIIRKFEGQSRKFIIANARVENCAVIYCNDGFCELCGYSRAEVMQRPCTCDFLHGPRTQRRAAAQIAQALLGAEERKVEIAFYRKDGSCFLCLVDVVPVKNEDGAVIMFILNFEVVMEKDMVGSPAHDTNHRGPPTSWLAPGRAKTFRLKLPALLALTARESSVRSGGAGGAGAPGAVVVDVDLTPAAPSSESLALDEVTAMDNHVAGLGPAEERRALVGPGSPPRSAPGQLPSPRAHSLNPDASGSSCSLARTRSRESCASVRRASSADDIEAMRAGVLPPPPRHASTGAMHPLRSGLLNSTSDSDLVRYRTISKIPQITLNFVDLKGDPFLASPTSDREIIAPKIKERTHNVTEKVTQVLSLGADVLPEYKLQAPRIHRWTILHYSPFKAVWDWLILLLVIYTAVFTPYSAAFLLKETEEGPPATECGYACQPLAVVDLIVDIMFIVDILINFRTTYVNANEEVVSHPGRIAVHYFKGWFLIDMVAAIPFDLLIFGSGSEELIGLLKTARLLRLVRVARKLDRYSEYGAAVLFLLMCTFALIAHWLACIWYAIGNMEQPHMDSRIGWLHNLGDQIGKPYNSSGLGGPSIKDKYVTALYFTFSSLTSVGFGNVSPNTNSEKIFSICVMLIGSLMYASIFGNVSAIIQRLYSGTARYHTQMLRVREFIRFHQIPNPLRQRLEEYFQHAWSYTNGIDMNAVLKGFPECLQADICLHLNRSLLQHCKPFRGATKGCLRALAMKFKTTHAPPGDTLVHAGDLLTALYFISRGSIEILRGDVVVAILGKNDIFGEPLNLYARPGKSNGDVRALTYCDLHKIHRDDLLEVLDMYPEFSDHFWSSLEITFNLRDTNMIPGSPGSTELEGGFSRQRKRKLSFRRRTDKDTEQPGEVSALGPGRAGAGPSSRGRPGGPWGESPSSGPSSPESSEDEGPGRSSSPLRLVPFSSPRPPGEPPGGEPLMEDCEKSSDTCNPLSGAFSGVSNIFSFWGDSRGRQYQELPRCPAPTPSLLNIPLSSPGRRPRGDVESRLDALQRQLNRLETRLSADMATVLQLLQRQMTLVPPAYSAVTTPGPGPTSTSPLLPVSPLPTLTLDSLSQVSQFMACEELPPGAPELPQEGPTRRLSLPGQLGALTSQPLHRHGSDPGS
- measurementProtocol: hERG inhibition test (manual patch-clamp)
- recordedConditions: read-out: hERG IC50; manual patch-clamp
Where a name gives a salt, the structure may show the parent alone.
Provide the reported IC50 of each item.

{"compound": "Cc1noc2cc(-c3c(O)cc(N4CCC(N)CC4)nc3-c3ccc(C#N)c(F)c3)c(F)cc12 [Example 26]", "IC50": "> 30 µM"}
{"compound": "COc1ccc(-c2c(O)cc(N3CCC(N)CC3)nc2-c2ccc(C#N)c(F)c2)cc1F [Example 11, formate]", "IC50": "> 30 µM"}

Next up:
Exercise: What value of IC50 has been recorded for this entry: COc1ccc(-c2c(O)cc(N3CCC(N)CC3)nc2-c2ccc(C#N)c(F)c2)cc1O [Example 23]
Key: > 30 µM

###

I'd appreciate it if you could supply pIC50 values for the items below.
- assayedSystem: LSD1 (Homo sapiens (Human), UniProt O60341)
- measurementProtocol: LSD1 enzyme activity detection (HTRF)
- Assay type: biochemical
- recordedConditions: HTRF, H3K4me1 substrate; read-out: Inhibition of enzymatic activity of LSD1 IC50
Where a name gives a salt, the structure may show the parent alone.
Answers are plain numbers, as −log10 of the molar value.

Before answering, review these 2 worked examples.
{"compound": "COc1ccc(-c2c(-c3ccc(C#N)nc3)nc(N3C4CCC3CC(N)C4)n3ccnc23)cc1F (stereo not drawn) [Example 176, hydrochloride]", "pIC50": 7.77}
{"compound": "COc1ccc(-c2cnc(N3CC(N)C3)c(C#N)c2-c2ccc(C#N)c(F)c2)cc1O", "pIC50": 7.89}

Could you now look at the following compound, please?
Exercise: Value lookup for pIC50; key = COc1ccc(-c2c(O)cc(N3CCC(N)CC3)nc2-c2ccc(C#N)c(F)c2)cc1N
Key: 7.89
